From: ChEMBL document CHEMBL4765237

procedureDetails: Half life in Sprague-Dawley rat at 10 mg/kg, po measured upto 24 hrs by LC-MS/MS analysis
Format: ADME, organism-based
conditionSummary: in vivo
observedProperty: half-life

Form field half-life, entry CC(C)(C)c1cc(NC(=O)Nc2ccc(Nc3ncnc4c3OCCCN4)cc2)no1 : 1.54 h

====

Reported GI50 values are given for each entry in this list.
Tested on: BaF3
procedureDetails: Growth inhibition of mouse BaF3 cells harboring RET V804M mutant incubated for 3 days by MTT assay
Assay type: functional
conditionSummary: BaF3, 72 h, time 3 day

Entry CC(C)(C)c1cc(NC(=O)Nc2ccc(Nc3ncnc4c3OCCCN4)cc2)no1 , GI50 reported as 0.93 µM

Value of GI50 reported for the molecule Cc1ccc(F)c(NC(=O)Nc2ccc(Nc3ncnc4c3OCCN4)cc2)c1 is > 10 µM

GET /value?item= CC(C)N1CCOc2c(Nc3ccc(NC(=O)Nc4cc(C(C)(C)C)on4)cc3)ncnc21 &field=GI50 returns 8.98 µM
